Tested on: A549
Assay: Antiproliferative activity against human A549 cells at 10 uM after 24 hrs by MTS assay relative to control
Format: functional
Settings: A549, 24 h
Listing of entries alongside the reported inhibition at 10 µM.
Reported Endpoint: inhibition at 10 µM (%)

CC1(C)C=Cc2cc([C@@H]3CC(=O)c4ccc5c(c4O3)C=CC(C)(C)O5)ccc2O1
10.9
CC1(C)C=Cc2cc3cc(-c4ccc(O)cc4O)c(=O)oc3cc2O1
0
CC(C)=CCc1cc(/C=C/C(=O)c2ccc3c(c2O)C=CC(C)(C)O3)ccc1O
2
CC(C)=CCc1cc(/C=C/C(=O)c2ccc(O)cc2O)ccc1O
6.4
CC(C)=CCc1c(O)cc(O)c2c(=O)c(-c3ccc(O)cc3)coc12
0
CC1(C)C=Cc2c(ccc3c(=O)c(-c4ccc(O)cc4O)coc23)O1
4.9
